I'd be grateful if you could share measured Dose.FC.LYZ.S for these entries.
System: ISC-enriched organoids
Test: Primary screen, 384-well 2.5-D organoid differentiation (ENR+CD, 6 days): carbachol-induced lysozyme secretion (LYZ.S)
Assay type: cell-based, murine
Details: primary screen, dose 2.00 uM, ENR+CD 6 days, FC vs plate median
Hi! Could you send only the number? It should be in log 2 fold change, unit omitted.

Form field: Dose.FC.LYZ.S recorded for CN1CCc2cc3c(cc2[C@H]1[C@@H]1OC(=O)c2c1ccc1c2OCO1)OCO3 [(+)-Bicuculline] with ISC-enriched organoids (enter value)
−0.026

Form field: Dose.FC.LYZ.S recorded for C[C@H](Oc1cc(-c2cnn(C3CCNCC3)c2)cnc1N)c1c(Cl)ccc(F)c1Cl [(S)-crizotinib] with ISC-enriched organoids (enter value)
−0.059

Form field: Dose.FC.LYZ.S recorded for NC(=O)Nc1cc(-c2cccc(F)c2)sc1C(=O)N[C@H]1CCCNC1 [AZD7762] with ISC-enriched organoids (enter value)
−0.342

Form field: Dose.FC.LYZ.S recorded for CC(C)N(CC[C@H](c1ccccc1)c1cc(CO)ccc1O)C(C)C [4CE°8C] with ISC-enriched organoids (enter value)
−0.055
